- TARGET OR SYSTEM: Sarcoplasmic/endoplasmic reticulum calcium ATPase 1 (Oryctolagus cuniculus, UniProt P04191)
- Sequence (P04191 whole entry): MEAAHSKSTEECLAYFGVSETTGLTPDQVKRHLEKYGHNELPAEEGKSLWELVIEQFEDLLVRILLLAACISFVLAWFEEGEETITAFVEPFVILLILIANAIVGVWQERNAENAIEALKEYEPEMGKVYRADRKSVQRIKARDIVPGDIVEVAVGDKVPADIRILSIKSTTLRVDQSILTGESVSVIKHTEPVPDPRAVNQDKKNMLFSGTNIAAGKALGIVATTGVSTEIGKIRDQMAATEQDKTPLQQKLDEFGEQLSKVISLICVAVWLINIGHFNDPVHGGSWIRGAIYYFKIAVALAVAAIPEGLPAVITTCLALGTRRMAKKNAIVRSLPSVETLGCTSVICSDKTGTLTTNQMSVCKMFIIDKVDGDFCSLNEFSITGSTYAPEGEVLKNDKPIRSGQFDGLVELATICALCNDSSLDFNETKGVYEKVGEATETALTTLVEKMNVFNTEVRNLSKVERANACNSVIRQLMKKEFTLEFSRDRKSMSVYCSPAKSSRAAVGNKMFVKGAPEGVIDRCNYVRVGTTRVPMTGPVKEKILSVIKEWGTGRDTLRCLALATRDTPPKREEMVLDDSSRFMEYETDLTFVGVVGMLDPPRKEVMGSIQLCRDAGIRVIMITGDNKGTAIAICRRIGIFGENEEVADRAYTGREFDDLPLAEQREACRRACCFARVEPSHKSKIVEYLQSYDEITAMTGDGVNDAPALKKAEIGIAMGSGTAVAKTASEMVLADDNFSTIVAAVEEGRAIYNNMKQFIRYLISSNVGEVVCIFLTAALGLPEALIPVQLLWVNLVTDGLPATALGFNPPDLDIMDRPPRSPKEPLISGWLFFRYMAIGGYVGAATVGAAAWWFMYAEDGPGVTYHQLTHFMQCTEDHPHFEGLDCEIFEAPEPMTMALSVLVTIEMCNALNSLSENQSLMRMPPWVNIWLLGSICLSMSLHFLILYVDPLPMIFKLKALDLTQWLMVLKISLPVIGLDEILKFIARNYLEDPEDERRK
- EXPERIMENT: Inhibition of rabbit sarcoplasmic reticulum calcium ATPase by ATP regeneration assay
pIC50: −log10 of the molar value.

COMPOUND	REPORTED RELATION	pIC50
CCCCCCCC(=O)O[C@H]1[C@H]2C(=C(C)[C@@H]1OC(=O)Cc1ccc(-c3ccccc3)cc1)[C@@H]1OC(=O)[C@@](C)(O)[C@@]1(O)[C@@H](OC(=O)CCC)C[C@]2(C)OC(C)=O	=	7.74
CCCCCCCC(=O)O[C@H]1[C@H]2C(=C(C)[C@@H]1OC(=O)c1ccccc1-c1ccccc1)[C@@H]1OC(=O)[C@@](C)(O)[C@@]1(O)[C@@H](OC(=O)CCC)C[C@]2(C)OC(C)=O	=	8.52
C/C=C(/C)C(=O)O[C@H]1C(C)=C2[C@H]([C@@H]1OC(=O)CCCCCCC)[C@@](C)(OC(=O)CCC)C[C@@H]1OC(C)(C)O[C@]3(C)C(=O)O[C@@H]2[C@]13O	=	7.72
C/C=C(/C)C(=O)O[C@H]1C(C)=C2[C@H]([C@@H]1OC(=O)CCCCCCC)[C@@](C)(O)C[C@H](OC(=O)CCCCCCC)[C@@]1(O)[C@H]2OC(=O)[C@@]1(C)O	=	7.70
C/C=C(/C)C(=O)O[C@H]1C(C)=C2[C@H]([C@@H]1OC(=O)CCCCCCC)[C@@](C)(OC(C)=O)C[C@H](O)[C@@]1(O)[C@H]2OC(=O)[C@@]1(C)O	=	8.00
C/C=C(/C)C(=O)O[C@H]1C(C)=C2[C@H]([C@@H]1OC(=O)CCCCCCC)[C@@](C)(OC(=O)c1ccc(-c3ccccc3)cc1)C[C@H](OC(=O)CCC)[C@@]1(O)[C@H]2OC(=O)[C@@]1(C)O	<	7.15
CCCCCCCC(=O)O[C@H]1[C@H]2C(=C(C)[C@@H]1OC(=O)c1cccc(C)c1)[C@@H]1OC(=O)[C@@](C)(O)[C@@]1(O)[C@@H](OC(=O)CCC)C[C@]2(C)OC(C)=O	=	8.05
C/C=C(/C)C(=O)O[C@H]1C(C)=C2[C@H]([C@@H]1OC(=O)CCCCCCC)[C@@](C)(O)C[C@H](OC(=O)CCC)[C@@]1(O)[C@H]2OC(=O)[C@@]1(C)O	=	7.70
CCCCCCCC(=O)O[C@H]1[C@H]2C(=C(C)[C@@H]1OC(=O)c1ccccc1)[C@@H]1OC(=O)[C@@](C)(O)[C@@]1(O)[C@@H](OC(=O)CCC)C[C@]2(C)OC(C)=O	=	9.10
C/C=C(/C)C(=O)O[C@H]1C(C)=C2[C@H]([C@@H]1OC(=O)CCCCCCC)[C@@](C)(OC(=O)Cc1ccc(-c3ccccc3)cc1)C[C@H](OC(=O)CCC)[C@@]1(O)[C@H]2OC(=O)[C@@]1(C)O	=	7.57
C/C=C(/C)C(=O)O[C@H]1C(C)=C2[C@H]([C@@H]1OC(=O)CCCCCCC)[C@@](C)(OC(=O)CCCCCCC)C[C@H](OC(=O)CCC)[C@@]1(O)[C@H]2OC(=O)[C@@]1(C)O	=	7.80
CCCCCCCC(=O)O[C@H]1[C@H]2C(=C(C)[C@@H]1OC(=O)c1ccc(-c3ccccc3)cc1)[C@@H]1OC(=O)[C@@](C)(O)[C@@]1(O)[C@@H](OC(=O)CCC)C[C@]2(C)OC(C)=O	<	7.15
C/C=C(/C)C(=O)O[C@H]1C(C)=C2[C@H]([C@@H]1OC(=O)CCCCCCC)[C@@](C)(OC(=O)CCC)C[C@H](OC(=O)CCC)[C@@]1(O)[C@H]2OC(=O)[C@@]1(C)OC(=O)CCC	=	7.95
C/C=C(/C)C(=O)O[C@H]1C(C)=C2[C@H]([C@@H]1OC(=O)c1ccccc1)[C@@](C)(OC(C)=O)C[C@H](OC(=O)CCC)[C@@]1(O)[C@H]2OC(=O)[C@@]1(C)O	=	8.80
C/C=C(/C)C(=O)O[C@H]1C(C)=C2[C@H]([C@@H]1OC(=O)CCCCCCC)[C@@](C)(OC(=O)CCC)C[C@@H]1OC(C)(C)O[C@]3(C)C(=O)O[C@@H]2[C@]13OC(=O)CCC	<	7.15
CCCCCCCC(=O)O[C@H]1[C@H]2C(=C(C)[C@@H]1O)[C@@H]1OC(=O)[C@@](C)(O)[C@@]1(O)[C@@H](OC(=O)CCC)C[C@]2(C)OC(C)=O	<	7.15
C/C=C(/C)C(=O)O[C@H]1C(C)=C2[C@H]([C@@H]1OC(=O)CCCCCCC)[C@@](C)(OC(=O)CCC)C[C@H](OC(=O)CCC)[C@@]1(O)[C@H]2OC(=O)[C@@]1(C)O	=	8.60
